# STUDY_TARGET: CYP2E1 (Homo sapiens, UniProt P05181)
# Sequence (P05181 whole entry): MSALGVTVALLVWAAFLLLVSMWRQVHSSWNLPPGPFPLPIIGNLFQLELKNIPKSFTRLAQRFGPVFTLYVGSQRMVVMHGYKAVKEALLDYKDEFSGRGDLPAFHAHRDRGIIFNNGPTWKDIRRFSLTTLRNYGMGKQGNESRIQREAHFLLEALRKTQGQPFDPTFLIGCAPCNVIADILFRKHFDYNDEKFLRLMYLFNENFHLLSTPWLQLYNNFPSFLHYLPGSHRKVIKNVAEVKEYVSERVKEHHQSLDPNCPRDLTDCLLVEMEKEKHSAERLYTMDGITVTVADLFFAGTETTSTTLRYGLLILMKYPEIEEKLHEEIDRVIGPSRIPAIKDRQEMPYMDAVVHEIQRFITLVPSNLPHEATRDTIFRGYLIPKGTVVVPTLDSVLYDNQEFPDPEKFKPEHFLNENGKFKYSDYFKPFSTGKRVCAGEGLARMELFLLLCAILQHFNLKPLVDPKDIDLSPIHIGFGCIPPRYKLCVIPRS
# TEST_DETAILS: in vitro
# RUN_CONDITIONS: pH 7.4, Inhibition of CYP 2E1 (%), tested concentration 66 μM
Note that class boundaries on inhibition at 40 min, 66 µM are Low = under 10%, Mid = from 10% up to 50%, High = 50% and over

Query string: Just checking, what class would you give O=C(O)c1ccc(O)c(O)c1 here?
Result string: Mid

Query string: Just checking, what class would you give CCCCCCCCCCCC1=C(O)C(=O)C=C(O)C1=O here?
Result string: Mid

Query string: Just checking, what class would you give COc1ccc([C@@H]2CC(=O)c3c(O)cc(O)cc3O2)cc1O here?
Result string: High

Query string: Just checking, what class would you give O=C(O)c1cc(O)c(O)c(O)c1 here?
Result string: Mid

Query string: Just checking, what class would you give O=C(CCc1ccc(O)cc1)c1c(O)cc(O)cc1O here?
Result string: High

Query string: Just checking, what class would you give O=c1c(O)c(-c2ccc(O)cc2)oc2cc(O)cc(O)c12 here?
Result string: High

Query string: Just checking, what class would you give O=C1c2c(O)cc(O)cc2O[C@H](c2ccc(O)c(O)c2)[C@H]1O [(+)-Taxifolin] here?
Result string: Mid

Query string: Just checking, what class would you give O=c1c(-c2ccc(O)cc2)coc2c([C@@H]3O[C@H](CO)[C@@H](O)[C@H](O)[C@H]3O)c(O)ccc12 here?
Result string: Low

Query string: Just checking, what class would you give O=C1C[C@@H](c2ccc(O)cc2)Oc2cc(O)cc(O)c21 here?
Result string: Mid

Query string: Just checking, what class would you give O=C(O)/C=C/c1ccccc1 [trans-Cinnamic acid] here?
Result string: Low

Query string: Just checking, what class would you give O=C(CCc1ccc(O)cc1)c1c(O)cc(O)cc1O[C@@H]1O[C@H](CO)[C@@H](O)[C@H](O)[C@H]1O here?
Result string: Low

Query string: Just checking, what class would you give CC(Cc1ccc(O)c(O)c1)C(C)Cc1ccc(O)c(O)c1 (stereo not drawn) [Nordihydroguaiaretic acid] here?
Result string: High

Taken from patent US8304394B2.
